// data source = the supplement of paper PMC11417369

Test system: PfAP2-EXP AP2 domain (GST-tagged)
Test: gcPBM binding intensity (ln(normalized median fluorescence intensity)); higher = stronger DNA binding
Whole data set: some 25,000 sequences, median “ln(normalized median fluorescence intensity)” near 8.6, cut for the highest 2% near 10. This is one part of a sample in which the highest values are shown more often than they occur.
Please mark Met if the recorded gcPBM binding intensity (ln) is equal to or greater than 9, and Not met if it falls below.

SEQ_STRING | ASSIGNED_CATEGORY
AATAACCACGGACACACACACATATATATATATATA [CACACA_site5873] | Met
AAAAAAAACGGACACACACACATACAAAATATATAT [CACACA_site4910] | Not met
AGTATACTCGGACACACACACACATATATATATATA [CACACA_site5031] | Met
AGTATACATATATATACACACACATATATATATATA [CACACA_site7883] | Met
AAAAGGATTTTTTATACACACACTAACTAATGTATA [CACACA_site2356] | Not met
TACATACACGGACACACACACATATATATATATATA [CACACA_site5883] | Met
AGTATACATATATATACACACATATATATATATATA [CACACA_site300] | Met

----------
Test system: PfAP2-EXP AP2 domain (GST-tagged)
Test: gcPBM binding intensity (ln(normalized median fluorescence intensity)); higher = stronger DNA binding
Over roughly 25,000 sequences, “ln(normalized median fluorescence intensity)” has its median near 8.6; the highest 2% begin near 10. What follows is part of a selection rich in the highest values, with near analogues and random picks from the rest.
ENDPOINT_NAME: gcPBM binding intensity (ln)

SEQ_STRING | ENDPOINT_NAME | OBS_VALUE
AAAAAAAAAAAACACACACACACACTAATATATAAA [CACACA_site8302] | gcPBM binding intensity (ln) | 8.47
TATATAAATATACACCCACACACATATATATATATA [CACACA_site9247] | gcPBM binding intensity (ln) | 10.2
AAAAAAAATACATACACACACACACCCACATATATA [CACACA_site3561] | gcPBM binding intensity (ln) | 8.75
TACATATACATATACACACACACACCCAAATAAATA [CACACA_site1344] | gcPBM binding intensity (ln) | 8.86
AATAAATATAAATACACACCCATATATATATATATA [CACACA_site5436] | gcPBM binding intensity (ln) | 10.2

----------
Test system: PfAP2-EXP AP2 domain (GST-tagged)
Test: gcPBM binding intensity (ln(normalized median fluorescence intensity)); higher = stronger DNA binding
Over roughly 25,000 sequences, “ln(normalized median fluorescence intensity)” has its median near 8.6; the highest 2% begin near 10. Many of the other results were omitted from the sample, so the highest values are more common in it than they were.
ENDPOINT_NAME: gcPBM binding intensity (ln)

SEQ_STRING | OBS_VALUE
TACTATTTAAAATATGAACACACATTATTTGTTTTA [CACACA_site8870] | 8.13
ATGAAGATTTAAAAATGTACATATGATCTATGTCCT [XGTACX_site8409] | 8.38
TATTTTTTTTTTTTTTTTTTTTTAAAACATATCAAT [CACACA_negctrl_site925] | 7.95
AAAAAAAAAATTAAATGTACATATATAATATATATA [XGTACX_site7245] | 8.62
CTTAAAAAAAAAAAATGTACACATAAAAAAAATACA [XGTACX_site6700] | 8.52
TATTATAATTAATATACACACGCTTATATATATATA [CACACA_site75] | 9.93
ATGGACAAGTTAAACGCACACAAATATATACAGACA [CACACA_site1652] | 9.15
AAATATTACCATGTGAAAATTTTACTGCAACATGAA [TGCATGCA_negctrl_site609] | 8.71
TATAAGAGAAGAAGAAAAAAAAGGTTTCTATAGAAA [XGTACX_negctrl_site421] | 8.76

----------
Parameter gcPBM binding intensity (ln): see the listing below.
Tested on: PfAP2-EXP AP2 domain (GST-tagged)
Assay: gcPBM binding intensity (ln(normalized median fluorescence intensity)); higher = stronger DNA binding
Over roughly 25,000 sequences, “ln(normalized median fluorescence intensity)” has its median near 8.6; the highest 2% begin near 10. The list comes from a sample in which the highest values are over-represented; it also holds close analogues and randomly drawn sequences.
ENDPOINT_NAME: gcPBM binding intensity (ln)

SEQ_STRING | OBS_VALUE
TTTTTTCTTTTTTTTTGTACATATAATATTTATGTT [XGTACX_site302] | 8.62
CTTCCTTAGGAATGTACACACATATATAATATGTTG [CACACA_site461] | 8.53
AATGTTTTTGTGAGATGTATAAATTTTATTTTATTT [XGTACX_negctrl_site413] | 8.38
ACATATAATATATATATATATATATATATATATAAT [GTGCAC_negctrl_site648] | 8.66
AAATATAAAAAAAAAAGTACTTTGTTACTTTTCTAT [XGTACX_site6034] | 8.04

----------
System: PfAP2-EXP AP2 domain (GST-tagged)
Experiment: gcPBM binding intensity (ln(normalized median fluorescence intensity)); higher = stronger DNA binding
In all, about 25,000 sequences were measured (“ln(normalized median fluorescence intensity)”: median about 8.6, highest 2% from about 10 on). Many of the other results were omitted from the sample, so the highest values are more common in it than they were.
Entries and their measured gcPBM binding intensity (ln) follow.

SEQ_STRING | gcPBM binding intensity (ln)
TAAATAAATATATATACACACATATATATATATATA [CACACA_site598] | 10.1
AATATATACATACATACATGCATACATATATATAAC [TGCATGCA_site371] | 8.73
TATAAATGATTAATTTGTACATATTTTACTTAATTG [XGTACX_site5271] | 8.18
AATACAAAAAAAGGTACACACATAATATATTTATTA [CACACA_site2628] | 8.7
AAAGGATATAGACACACACACACATATATATATATA [CACACA_site2200] | 10.2
TTAAATGTTATATATTGTACATATAATATATGTATT [XGTACX_site1492] | 8.27
TCTGGCATATAATATTGTACACATATATATATATAT [XGTACX_site8182] | 10.2
TAAATAAATACATACACACACATACATATATATATA [CACACA_site3129] | 9.86
ATATATATAATATATTGTACATATAATATATATATA [XGTACX_site4792] | 9.24
TATAATATATACAAATGTACATATATATATATATAT [XGTACX_site4559] | 10.2
CTTACCAAAAGACACACACACACAAGATATATAAAT [CACACA_site6964] | 8.77
ATAAAAAAAGGACACACACACATATATTTATTTATA [CACACA_site7438] | 8.66
TTTTTTTAATTAGTTTGTACATATTGTTATAATATA [XGTACX_site6294] | 8.56
TGCAAATTTAACAAAAAAAAAAAAAAAAAAAAAAAA [GTGCAC_negctrl_site64] | 7.88
AATACATACATACATACATGCATATATATATATATA [TGCATGCA_site462] | 10.2
AATAAAATACAAAAATGTACAAATATAATATACATA [XGTACX_site279] | 8.34
TAAATAAAATACAAATGTACATAAATAATAAATATA [XGTACX_site1813] | 8.76
TATAATTATTTTTTCACACATATGTATTTATATATA [CACACA_site4205] | 8.88
TTGTTTCTTAAATTATTTATTTTATATTAAAAAAAA [XGTACX_negctrl_site224] | 8.31
CATATAAAAGGACACACACACACATATATATATATA [CACACA_site4674] | 10
AAATTAATATATAAAAGTACCCATATATTTAATATA [XGTACX_site3551] | 8.21
AATAAAATAAGAAGCACACAAATATTATATATAAAA [CACACA_site3980] | 8.78
CACATAAAATAAGGTGCATGCAAACGAGAAAATAAA [TGCATGCA_site75] | 10.5
CATAAATACATACATACACACATATATATATATATA [CACACA_site2106] | 10.2
TATATATATAGACACACACACACATATATATATATA [CACACA_site9366] | 10.1
CATATATAATAATATTGTACATATATAATAATAATA [XGTACX_site3338] | 8.4
CATATATAAATATATACACACATACATACATACATA [CACACA_site5988] | 8.73
ATAAAAAAAGGACACACACACATATATATATATATA [CACACA_site5662] | 10.2
TATTAAATATTGTAATGTACATATATAATATAATAT [XGTACX_site1809] | 8.53
AAATGGAGTTAATATTGTACATATATATATATATAT [XGTACX_site5452] | 10.3
AAAGGATACAGACACACACACACATATATATATATA [CACACA_site906] | 10.1
ATACATGAATAAATATGTACACATATAAAAACATAT [XGTACX_site2740] | 8.68
CATATTTTGAACTTCACACATATATATATATATATA [CACACA_site4228] | 10.2
CCATAAAAAGGATACACACACACACCCACATATATA [CACACA_site903] | 8.71
TATATGACAAGATAAAGTACAAATTTGTATATATAT [XGTACX_site3027] | 8.97
TAAATACATAAATACACACACATATATATATATATA [CACACA_site5549] | 10.2
AGGCACTTATAATAATGTACATAAATAAAAAGAAAA [XGTACX_site6037] | 8.81
TTTTTTTTTTACTTCACACATATACATTTATATTTA [CACACA_site4385] | 8.7
